The measured values listed here are drawn from patent US10471048B2.

# method.summary: HCV replicon assay, cell viability (CytoTox-1)
# test.settings: human, Huh7 hepatoma cells containing a subgenomic HCV replicon
assay.metric: CC50 at 72 h

Qu. Item CC(=O)Oc1cc2c(s1)CCN(C(C(=O)C1CC1)c1ccccc1F)C2.Cl (racemic) [Prasugrel, acetate hydrochloride] has what recorded CC50 at 72 h?
Ans. 88.5 µM
